- Tested on: U2OS
- assay info: Multiplex assay against U2OS
- Type: toxicity, cell-based
- measurement parameters: human, 24 h, 10 µM, compound concentration 10 uM, replicate 1
readout type: Population Normal (%)

- C[C@@H]1C[C@H]2[C@@H]3CCC4=CC(=O)C=C[C@]4(C)[C@@]3(F)[C@@H](O)C[C@]2(C)[C@@]1(O)C(=O)CO [DEXAMETHASONE]: 98
- CCCC(CCC)C(=O)O [VALPROIC ACID]: 97
- N[C@@]1(C(=O)O)CO[C@H]2[C@H](C(=O)O)[C@H]21 [LY-379268]: 98
- CC[C@H]1OC(=O)[C@H](C)[C@@H](O[C@H]2C[C@@](C)(OC)[C@@H](O)[C@H](C)O2)[C@H](C)[C@@H](O[C@@H]2O[C@H](C)C[C@H](N(C)C)[C@H]2O)[C@@]2(C)CC(C)=C(O2)[C@H](C)[C@@H](O)[C@]1(C)O: 94
- CCCn1c(=O)c2[nH]c(C3CCCC3)nc2n(CCC)c1=O: 97
- C[C@H](NC(=O)c1c(C(F)F)nn(C)c1Oc1cccc(C(F)(F)F)c1)c1ccc(C(=O)O)cc1 [PALUPIPRANT]: 97
- CSc1ccccc1N1CCN(CCCCCC(=O)NC2CCCc3ccccc32)CC1.Cl (stereo unspecified): 93
- N#Cc1c(N)nc(SCc2csc(-c3ccc(Cl)cc3)n2)c(C#N)c1-c1ccc(OCCO)cc1 [CAPADENOSON]: 94
- CC1(COc2ccc3c(c2)ncn3-c2ccc3cccc(N4CCC(N)CC4)c3n2)COC1 [CRENOLANIB]: 62
- COc1cc(NC(=O)CCN2CCC(OC(=O)Nc3ccccc3-c3ccccc3)CC2)c(Cl)cc1CNC[C@H](O)c1ccc(O)c2[nH]c(=O)ccc12 [BATEFENTEROL]: 95
- O=C(NCC(=O)N1CC[C@H](N[C@H]2CC[C@@](O)(c3ccc(-c4ncccn4)cn3)CC2)C1)c1cccc(C(F)(F)F)c1 [PF-4136309]: 96
- O=C(O)c1cc2ccccc2c(Cc2c(O)c(C(=O)O)cc3ccccc23)c1O [PAMOIC ACID]: 96
- CC(C)(C)c1ccc(S(=O)(=O)Nc2ccc(Cl)cc2C(=O)c2cc[n+]([O-])cc2)cc1 [VERCIRNON]: 97
- O=S(=O)(c1ccccc1)c1cnc2c(N3CCNCC3)cccc2c1 [INTEPIRDINE]: 96
- Cc1ccc(-c2ccc(F)cc2COc2ccc(CCC(=O)O)cc2)cc1: 98
- C[C@H]1[C@H]2CC[C@H]3[C@@H]4CC=C5C[C@@H](N(C)C)CC[C@]5(C)[C@H]4CC[C@]23CN1C [CONESSINE]: 97
- Cc1ccccc1C(=O)Nc1ccc(C(=O)N2CCCC(N(C)C)c3ccccc32)cc1.Cl (stereo unspecified): 95
- CNC[C@H](O)c1ccc(O)c(O)c1 [EPINEPHRINE]: 90
- Cc1ccc(F)cc1C(=O)Nc1ccc(C(=O)N2Cc3cccn3Cc3ccccc32)c(Cl)c1 [LIXIVAPTAN]: 95
- CN1CCN2c3ncccc3Cc3ccccc3C2C1 (stereo unspecified) [MIRTAZAPINE]: 97
- COc1ccc2c(c1)C(C(=O)N(Cc1ccc(N(C)C)cc1)c1ccc(C(C)C)cc1)CCC2.Cl (stereo unspecified): 97
